Values were extracted from ChEMBL document CHEMBL4823247.

Measured Ka values are reported for all entries that follow.
Species on record: Sus scrofa
TEST_SUMMARY: Binding affinity to pig pancreatic lipase type 2 assessed as binding constant at 27 degC measured after 1 min by Stern-Volmer plot analysis

Examples from the recorded data:
• O=c1c(-c2ccc(O)cc2)coc2cc(O)ccc12 = 5.3 10^4L/mol
• COc1ccc(-c2coc3c(Br)c(O)ccc3c2=O)cc1 = 12.4 10^4L/mol

Find the recorded Ka belonging to O=c1c(-c2ccc(O)cc2)coc2cc(O)cc(O)c12 and report it.
1.24 10^4L/mol

Find the recorded Ka belonging to COc1ccc(-c2coc3cc(O)ccc3c2=O)cc1 and report it.
0.16 10^4L/mol

Find the recorded Ka belonging to O=c1c(-c2cc(Br)c(O)c(Br)c2)coc2c(Br)c(O)ccc12 and report it.
0.32 10^4L/mol

###

Species: Sus scrofa
TEST_SUMMARY: Binding affinity to pig pancreatic lipase type 2 assessed as quenching rate constant at 27 degC measured after 1 min by Stern-Volmer plot analysis
Measured Kq values are reported for all entries that follow.

Examples from the recorded data:
* O=c1c(-c2cc(Br)c(O)c(Br)c2)coc2c(Br)c(O)ccc12 | 0.36 10^13L/mol.s
* COc1ccc(-c2coc3c(Br)c(O)ccc3c2=O)cc1 | 2.95 10^13L/mol.s
* COc1ccc(-c2coc3cc(O)ccc3c2=O)cc1 | 0.45 10^13L/mol.s
* O=c1c(-c2ccc(O)cc2)coc2cc(O)cc(O)c12 | 1.18 10^13L/mol.s

Consider the record given below.
Find the recorded Kq belonging to O=c1c(-c2ccc(O)cc2)coc2cc(O)ccc12 and report it.
5.62 10^13L/mol.s

###

Species: Sus scrofa
TEST_SUMMARY: Binding affinity to pig pancreatic lipase type 2 assessed as Stern-Volmer quenching constant at 32 degC measured after 1 min by Stern-Volmer plot analysis
PROPERTY_NAME: KSV

- O=c1c(-c2cc(Br)c(O)c(Br)c2)coc2c(Br)c(O)ccc12: 0.96 10^4L/mol
- COc1ccc(-c2coc3cc(O)ccc3c2=O)cc1: 1.02 10^4L/mol
- O=c1c(-c2ccc(O)cc2)coc2cc(O)ccc12: 4.94 10^4L/mol
- COc1ccc(-c2coc3c(Br)c(O)ccc3c2=O)cc1: 3.34 10^4L/mol

Consider the record given below.
Find the recorded KSV belonging to O=c1c(-c2ccc(O)cc2)coc2cc(O)cc(O)c12 and report it.
1.5 10^4L/mol

###

TEST_SUMMARY: Competitive inhibition of pig pancreatic lipase type 2 using varying concentrations of p-nitrophenyl butyrate as substrate measured every 1 min for 30 mins by Lineweaver-Burk plot analysis
Parameters: species or system Sus scrofa
PROPERTY_NAME: Ki (µM)

* COc1ccc(-c2coc3c(Br)c(O)ccc3c2=O)cc1 | 320

(1) COc1ccc(-c2coc3cc(O)ccc3c2=O)cc1 [FORMONONETIN]
(2) O=c1c(-c2ccc(O)cc2)coc2cc(O)ccc12 [DAIDZEIN]
(3) O=c1c(-c2ccc(O)cc2)coc2cc(O)cc(O)c12 [GENISTEIN]
Sort the 3 compounds by Ki; largest first, smallest last. The response must list the labels following the requested ordering.
1, 2, 3
(1: 640 µM, 2: 300 µM, 3: 80 µM)

###

Species on record: Sus scrofa
TEST_SUMMARY: Binding affinity to pig pancreatic lipase type 2 assessed as quenching rate constant at 32 degC measured after 1 min by Stern-Volmer plot analysis
Measured Kq values are reported for all entries that follow.

Examples from the recorded data:
* COc1ccc(-c2coc3c(Br)c(O)ccc3c2=O)cc1 | 2.1 10^13L/mol.s
* O=c1c(-c2cc(Br)c(O)c(Br)c2)coc2c(Br)c(O)ccc12 | 0.6 10^13L/mol.s
* O=c1c(-c2ccc(O)cc2)coc2cc(O)cc(O)c12 | 0.94 10^13L/mol.s
* O=c1c(-c2ccc(O)cc2)coc2cc(O)ccc12 | 3.11 10^13L/mol.s

Consider the record given below.
Find the recorded Kq belonging to COc1ccc(-c2coc3cc(O)ccc3c2=O)cc1 and report it.
0.64 10^13L/mol.s
